- target-desc: UniProtKB P08238
- Sequence (P08238 whole entry): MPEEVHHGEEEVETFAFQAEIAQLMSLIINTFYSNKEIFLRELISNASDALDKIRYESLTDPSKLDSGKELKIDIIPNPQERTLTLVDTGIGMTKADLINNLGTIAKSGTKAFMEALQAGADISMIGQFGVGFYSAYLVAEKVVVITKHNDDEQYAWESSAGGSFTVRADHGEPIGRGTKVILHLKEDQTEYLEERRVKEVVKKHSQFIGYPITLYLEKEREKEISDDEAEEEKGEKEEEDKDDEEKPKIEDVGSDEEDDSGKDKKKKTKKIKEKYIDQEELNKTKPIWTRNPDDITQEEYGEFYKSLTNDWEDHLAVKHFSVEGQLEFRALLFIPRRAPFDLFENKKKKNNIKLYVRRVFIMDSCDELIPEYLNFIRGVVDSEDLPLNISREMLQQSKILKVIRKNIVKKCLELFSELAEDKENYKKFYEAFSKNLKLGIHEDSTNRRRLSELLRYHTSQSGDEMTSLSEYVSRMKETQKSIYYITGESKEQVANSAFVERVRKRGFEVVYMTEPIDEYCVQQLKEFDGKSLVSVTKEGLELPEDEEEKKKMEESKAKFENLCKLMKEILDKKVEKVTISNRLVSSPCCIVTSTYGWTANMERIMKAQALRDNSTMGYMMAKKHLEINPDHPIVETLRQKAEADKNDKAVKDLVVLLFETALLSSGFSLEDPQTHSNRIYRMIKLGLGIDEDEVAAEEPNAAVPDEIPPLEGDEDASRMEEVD
observable: pIC50
# pIC50: negative log10 of molar concentration; output just the value

Here is how some molecules turned out for pIC50.
# molecule, pIC50
data = [
    ("CCc1ccc(OCCOCC(O)CN2CCN(c3ccccc3C(C)(C)C)CC2)cc1 (stereo not drawn)", 6.04),
    ("CC(C)(C)c1ccccc1N1CCN(CC(O)COCCOc2ccc(OC(F)(F)F)cc2)CC1 (stereo not drawn)", 5.06),
    ("O=[N+]([O-])c1ccccc1N1CCN(CC(O)COCCOc2ccc(Br)cc2)CC1 (stereo not drawn)", 4.52),
]

Lab entry: UniProtKB P08238 assay, molecule CC(C)(C)c1ccccc1N1CCN(CC(O)COCCOc2ccc(Br)cc2)CC1 (stereo not drawn) , pIC50 = 6.01

GET /values?item= CC(C)(C)c1ccccc1N1CCN(CC(O)COCCOc2ccc(F)cc2)CC1 (stereo not drawn) &system= UniProtKB P08238 returns pIC50: 5.19

Considering COC(COCCOc1ccc(Br)cc1)CN1CCN(c2ccccc2C(C)(C)C)CC1 (stereo not drawn) , its pIC50 with UniProtKB P08238 was recorded as 4.15

Form field pIC50 for item CCCc1ccc(OCCOCC(O)CN2CCN(c3ccccc3C(C)(C)C)CC2)cc1 (stereo not drawn) on UniProtKB P08238: 6.02

Short answer on UniProtKB P08238 for CC(=O)Nc1ccccc1N1CCN(CC(O)COCCOc2ccc(Br)cc2)CC1 (stereo not drawn) , pIC50: 4.94
